Below, each entry is listed alongside its reported stoichiometry N.
Target: the molecule itself
Test: native MS; dimerization of apo proteins: 5 µM protein in 150 mM ammonium acetate pH 7.5, 0.5 mM DTT; monomer-dimer distribution quantified
Please reply with the number alone, leaving off any unit.

{"columns": ["PROTEIN", "stoichiometry N"],
 "data": [
  ["G9a methyltransferase domain (aa residues 913-1193), Del 1076-9 (domain or fragment, human, UniProt Q96KQ7-1 913-1193, looked up, G9a (EHMT2), human, methyltransferase (SET) domain, aa residues 913-1193, patient variant; numbered on NP_006700.3; also called p.Glu1076_Val1079del; c.3225_3236del; source: E. coli BL21-CodonPlus (DE3)-RIPL, pET28a, purified (IMAC, TEV cleavage, SEC, second IMAC); not shown: His6, N-terminal, cleaved) NRAIRTEKIICRDVARGYENVPIPCVNGVDGEPCPEDYKYISENCETSTMNIDRNITHLQHCTCVDDCSSSNCLCGQLSIRCWYDKDGRLLQEFNKIEPPLIFECNQACSCWRNCKNRVVQSGIKVRLQLYRTAKMGWGVRALQTIPQGTFICEYVGELISDAREDDSYLFDLDNKDGEVYCIDARYYGNISRFINHLCDPNIIPVRVFMLHQDLRFPRIAFFSSRDIRTGEELGFDYGDRFWDIKSKYFTCQCGSEKCKHSAEAIALEQSRLARLD", 2]
]}

stoichiometry N lookup needed for GLP methyltransferase domain (aa 1001-1266), wild type (domain or fragment, human, UniProt Q9H9B1-1 1001-1266, looked up, GLP (EHMT1), human, methyltransferase (SET) domain, aa 1001-1266; NM_024757.5 is printed for the EHMT1 variant of the Kleefstra syndrome 1 patient, not expressly for this construct; also called EHMT1; euchromatin histone lysine methyltransferase 1; source: E. coli BL21-CodonPlus (DE3)-RIPL, pET28a, purified (IMAC, TEV cleavage, SEC, second IMAC); not shown: His6, N-terminal, cleaved) DRPSPVERIVSRDIARGYERIPIPCVNAVDSEPCPSNYKYVSQNCVTSPMNIDRNITHLQYCVCIDDCSSSNCMCGQLSMRCWYDKDGRLLPEFNMAEPPLIFECNHACSCWRNCRNRVVQNGLRARLQLYRTRDMGWGVRSLQDIPPGTFVCEYVGELISDSEADVREEDSYLFDLDNKDGEVYCIDARFYGNVSRFINHHCEPNLVPVRVFMAHQDLRFPRIAFFSTRLIEAGEQLGFDYGERFWDIKGKLFSCRCGSPKCRHS , thanks.
2
